For each of the compounds below, state its pIC50.
Experiment: Inhibition of human SRB1-mediated Hepatitis C virus genotype 2a entry into human 293T cells by immunoblotting
One number for each entry, as −log10 of the molar value.

Form field pIC50, entry COC(=O)c1ccc2c(c1)c1ccccc1n2CCCN1C[C@@H](C)N[C@@H](C)C1 : 6.64

Please look at the items below and tell me pIC50 for each one, in order.
1. C[C@@H]1CN(CCCn2c3ccccc3c3ccccc32)C[C@H](C)N1
2. CCOC(=O)c1ccc2c(c1)c1ccccc1n2CCCN1C[C@@H](C)N[C@@H](C)C1
3. CC(C)OC(=O)c1ccc2c(c1)c1ccccc1n2CCCN1C[C@@H](C)N[C@@H](C)C1

5.92
6.22
6.20
